# testTarget: UniProt Q8BZP8
# testMethodNotes: Agonist activity at mouse NPSR expressed in HEK293 cells assessed as increase in intracellular calcium mobilization at 10 uM by FLIPR
# Assay type: functional, cell-based
Residues, ends and D or L forms follow the SMILES beside them.
resultType: Activity (%)
Write it as a number; the unit % goes unstated.

Quick note, Activity for CSCC[C@H](NC(=O)CNC(=O)[C@@H](NC(=O)CNC(=O)[C@@H](NC(=O)CNC(=O)[C@H](CC(=O)N(C)C)NC(=O)[C@H](CCCNC(=N)N)NC(=O)[C@H](Cc1ccccc1)NC(=O)[C@@H](N)CO)C(C)C)[C@@H](C)O)C(=O)N[C@@H](CCCCN)C(=O)N[C@@H](CCCCN)C(=O)N[C@H](C(=O)N[C@@H](CO)C(=O)N[C@@H](Cc1ccccc1)C(=O)N[C@@H](CCC(N)=O)C(=O)N[C@@H](CCCNC(=N)N)C(=O)N[C@@H](C)C(=O)N[C@@H](CCCCN)C(=O)N[C@@H](CO)C(=O)O)[C@@H](C)O (H-SFRD(NMe2)GVGTGMKKTSFQRAKS-OH) landed at 89

----------
Listed below: Activity values for each entry.
# testTarget: Neuropeptide S receptor (Mus musculus) (UniProt Q8BZP8)
# Sequence (whole entry): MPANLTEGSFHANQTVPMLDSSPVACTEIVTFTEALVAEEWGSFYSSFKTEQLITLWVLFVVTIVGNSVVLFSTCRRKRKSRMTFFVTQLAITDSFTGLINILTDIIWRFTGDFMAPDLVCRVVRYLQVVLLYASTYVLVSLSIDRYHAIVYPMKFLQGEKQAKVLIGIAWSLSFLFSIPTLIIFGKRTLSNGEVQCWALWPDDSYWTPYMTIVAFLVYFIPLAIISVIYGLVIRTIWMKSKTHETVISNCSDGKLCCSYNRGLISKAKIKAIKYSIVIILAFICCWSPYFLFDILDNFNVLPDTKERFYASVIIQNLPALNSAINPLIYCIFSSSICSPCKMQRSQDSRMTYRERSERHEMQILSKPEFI
# testMethodNotes: Agonist activity at mouse NPSR expressed in HEK293 cells assessed as increase in intracellular calcium mobilization at 10 uM by FLIPR
# Assay type: functional, cell-based
Write it as a number; the unit % goes unstated.

H-SFNNGVGTGMKKTSFQRAKS-OH    161
H-SFRDGVGTGMKKTSFQRAKS-OH    146

Let's switch to this substance now.
Quick note, Activity for "H-SFFNGVGTGMKKTSFQRAKS-OH" landed at 46

----------
# testTarget: Neuropeptide S receptor (Mus musculus) (UniProt Q8BZP8)
# testMethodNotes: Agonist activity at mouse NPSR expressed in HEK293 cells assessed as increase in intracellular calcium mobilization by FLIPR relative to baseline
# Format: functional, cell-based
Structures can show the parent of a compound that is named as a salt. Non-standard residues stand in square brackets, D forms with d. Residues, ends and D or L forms follow the SMILES beside them. *: point of attachment. hArg = N=C(N)NCCCC[C@H](N)C(=O)O; Orn = NCCC[C@H](N)C(=O)O; Dab = NCC[C@H](N)C(=O)O; Nva = CCC[C@H](N)C(=O)O; Abu = CC[C@H](N)C(=O)O; Tfa = O=C(C(F)(F)F)*
Listed below: Emax values for each entry.
Write it as a number; the unit % goes unstated.

Solved cases below.
CCC[C@H](NC(=O)[C@H](Cc1ccccc1)NC(=O)[C@@H](N)CO)C(=O)N[C@@H](CC(N)=O)C(=O)NCC(=O)N[C@H](C(=O)NCC(=O)N[C@H](C(=O)NCC(=O)N[C@@H](CCSC)C(=O)N[C@@H](CCCCN)C(=O)N[C@@H](CCCCN)C(=O)N[C@H](C(=O)N[C@@H](CO)C(=O)N[C@@H](Cc1ccccc1)C(=O)N[C@@H](CCC(N)=O)C(=O)N[C@@H](CCCNC(=N)N)C(=O)N[C@@H](C)C(=O)N[C@@H](CCCCN)C(=O)N[C@@H](CO)C(=O)O)[C@@H](C)O)[C@@H](C)O)C(C)C (H-SF[Nva]NGVGTGMKKTSFQRAKS-OH)    207
CSCC[C@H](NC(=O)CNC(=O)[C@@H](NC(=O)CNC(=O)[C@@H](NC(=O)CNC(=O)[C@H](CC(N)=O)NC(=O)[C@H](CCCN)NC(=O)[C@H](Cc1ccccc1)NC(=O)[C@@H](N)CO)C(C)C)[C@@H](C)O)C(=O)N[C@@H](CCCCN)C(=O)N[C@@H](CCCCN)C(=O)N[C@H](C(=O)N[C@@H](CO)C(=O)N[C@@H](Cc1ccccc1)C(=O)N[C@@H](CCC(N)=O)C(=O)N[C@@H](CCCNC(=N)N)C(=O)N[C@@H](C)C(=O)N[C@@H](CCCCN)C(=O)N[C@@H](CO)C(=O)O)[C@@H](C)O (H-SF[Orn]NGVGTGMKKTSFQRAKS-OH)    318
CSCC[C@H](NC(=O)CNC(=O)[C@@H](NC(=O)CNC(=O)[C@@H](NC(=O)CNC(=O)[C@H](CC(N)=O)NC(=O)[C@H](CCN)NC(=O)[C@H](Cc1ccccc1)NC(=O)[C@@H](N)CO)C(C)C)[C@@H](C)O)C(=O)N[C@@H](CCCCN)C(=O)N[C@@H](CCCCN)C(=O)N[C@H](C(=O)N[C@@H](CO)C(=O)N[C@@H](Cc1ccccc1)C(=O)N[C@@H](CCC(N)=O)C(=O)N[C@@H](CCCNC(=N)N)C(=O)N[C@@H](C)C(=O)N[C@@H](CCCCN)C(=O)N[C@@H](CO)C(=O)O)[C@@H](C)O (H-SF[Dab]NGVGTGMKKTSFQRAKS-OH)    207
CSCC[C@H](NC(=O)CNC(=O)[C@@H](NC(=O)CNC(=O)[C@@H](NC(=O)CNC(=O)[C@H](CC(N)=O)NC(=O)[C@H](CCCCNC(=O)C(F)(F)F)NC(=O)[C@H](Cc1ccccc1)NC(=O)[C@@H](N)CO)C(C)C)[C@@H](C)O)C(=O)N[C@@H](CCCCN)C(=O)N[C@@H](CCCCN)C(=O)N[C@H](C(=O)N[C@@H](CO)C(=O)N[C@@H](Cc1ccccc1)C(=O)N[C@@H](CCC(N)=O)C(=O)N[C@@H](CCCNC(=N)N)C(=O)N[C@@H](C)C(=O)N[C@@H](CCCCN)C(=O)N[C@@H](CO)C(=O)O)[C@@H](C)O (H-SFK(Tfa)NGVGTGMKKTSFQRAKS-OH)    231
CSCC[C@H](NC(=O)CNC(=O)[C@@H](NC(=O)CNC(=O)[C@@H](NC(=O)CNC(=O)[C@H](CC(N)=O)NC(=O)[C@H](CCCCNC(=N)N)NC(=O)[C@H](Cc1ccccc1)NC(=O)[C@@H](N)CO)C(C)C)[C@@H](C)O)C(=O)N[C@@H](CCCCN)C(=O)N[C@@H](CCCCN)C(=O)N[C@H](C(=O)N[C@@H](CO)C(=O)N[C@@H](Cc1ccccc1)C(=O)N[C@@H](CCC(N)=O)C(=O)N[C@@H](CCCNC(=N)N)C(=O)N[C@@H](C)C(=O)N[C@@H](CCCCN)C(=O)N[C@@H](CO)C(=O)O)[C@@H](C)O (H-SF[hArg]NGVGTGMKKTSFQRAKS-OH)    288

Quick note, Emax for CC[C@H](NC(=O)[C@H](Cc1ccccc1)NC(=O)[C@@H](N)CO)C(=O)N[C@@H](CC(N)=O)C(=O)NCC(=O)N[C@H](C(=O)NCC(=O)N[C@H](C(=O)NCC(=O)N[C@@H](CCSC)C(=O)N[C@@H](CCCCN)C(=O)N[C@@H](CCCCN)C(=O)N[C@H](C(=O)N[C@@H](CO)C(=O)N[C@@H](Cc1ccccc1)C(=O)N[C@@H](CCC(N)=O)C(=O)N[C@@H](CCCNC(=N)N)C(=O)N[C@@H](C)C(=O)N[C@@H](CCCCN)C(=O)N[C@@H](CO)C(=O)O)[C@@H](C)O)[C@@H](C)O)C(C)C (H-SF[Abu]NGVGTGMKKTSFQRAKS-OH) landed at 218

Reference source: ChEMBL document CHEMBL1152211
